I'd appreciate it if you could supply melting point values for the items below.

Batch request: melting point per item, same order as input.
1. CCOC(=O)C=Cc1cccc(-c2c(CC(=O)Nc3ccc(Cl)cc3C(F)(F)F)c(=O)oc3cc(Cl)c(C)cc23)c1
2. COc1cccc(OC)c1NC(=O)Cc1c(-c2ccccc2)c2cc(COC(C)=O)c(Cl)cc2oc1=O
3. CCc1ccccc1NC(=O)Cc1c(-c2ccccc2)c2cc3c(cc2oc1=O)CCC3
4. COc1cccc(C)c1NC(=O)Cc1c(-c2ccccc2)c2cc3c(cc2oc1=O)CCC3

// result
["118 °C (dec.)", "229 to 231 °C", "234 to 237 °C", "232 to 237 °C"]
